EXPERIMENTAL PROTOCOL: logP determination by HPLC on a reversed-phase column (C 18), EEC Directive 79/831 Annex V.A8
Format: physicochemical
CONDITION SUMMARY: method marked [b] in Table 1
Method: The stated logP values were determined in accordance with EEC Directive 79/831 Annex V.A8 by HPLC (high performance liquid chromatography) on a reversed-phase column (C 18). Temperature: 43° C.
REPORTED ENDPOINT: logP

- CCCC(=NOCC1(CON=C(CCC)c2cccc(C)n2)CC(CC)=NO1)c1cccc(C)n1 (stereo not shown): 5.08^[b]
- CC(=NOCC1(CON=C(C)c2ccc(C)c(C)n2)CC(c2ccccc2)=NO1)c1ccc(C)c(C)n1 (stereo not shown): 3.61^[b]
- COCc1nc(/C(N)=N/OCc2ccccc2CO/N=C(\N)c2nc(COC)c(C)c(COC)n2)nc(COC)c1C: 2.16^[b]
- CC(=NOCC1(CON=C(C)c2cc(C)cc(C)n2)CCCCC1)c1cc(C)cc(C)n1: 3.87^[b]
- CC(=NOCC(CON=C(C)c1cc(C)cc(C)n1)Cc1ccccc1)c1cc(C)cc(C)n1 (stereo not shown): 3.62^[b]

Request: Determine from records and report logP for CC(=NOCC1(CON=C(C)c2cc(C)cc(C)n2)CC(c2ccc(Cl)cc2)=NO1)c1cc(C)cc(C)n1 (stereo not shown)
Response: 3.28^[b]

Request: Kindly indicate its recorded logP. Item: CCCC(=NOCC1(CON=C(CCC)c2cccc(C)n2)CC(c2ccccc2)=NO1)c1cccc(C)n1 (stereo not shown)
Response: 5.9^[b]

====

Recorded logP values for a group of molecules are listed next.
EXPERIMENTAL PROTOCOL: logP determination by HPLC on a reversed-phase column (C 18), EEC Directive 79/831 Annex V.A8
Type: physicochemical
CONDITION SUMMARY: method marked [a] in Table 1

// solved cases for logP follow
• COc1ccc(-c2cccc(C(C)=NOCC(C)(C)CON=C(C)c3cccc(-c4ccc(OC)cc4)n3)n2)cc1 [compound 579] = 7.36^[a]
• Cc1cccc(C(=NOCC(C)CON=C(c2ccccc2)c2cccc(C)n2)c2ccccc2)n1 (single isomer, unassigned) [compound 661] = 4.10^[a] (isomer A)
• CC(=NOC/C=C/CON=C(C)c1ccc(C)c(C)n1)c1ccc(C)c(C)n1 [compound 684] = 2.67^[a]
• CC(=NOCC(C)(C)CON=C(C)c1cccc(-c2ccc(Cl)c(C(F)(F)F)c2)n1)c1cccc(-c2ccc(Cl)c(C(F)(F)F)c2)n1 [compound 577] = 7.36^[a]
• CCc1cc(CC)nc(C(C)=NOCC(C)CON=C(C)c2cc(CC)cc(CC)n2)c1 (stereo not drawn) [compound 574] = 5.95^[a]
• CCC1=NOC(CON=C(C)c2cccc(C)n2)(CON=C(C)c2cccc(C)n2)C1 (stereo not drawn) [compound 594] = 2.68^[a]

Request: Dear colleague, please send me the reported logP for CCC(=NOCC(C)CON=C(CC)c1cc(C)cc(C)n1)c1cc(C)cc(C)n1 (single isomer, unassigned) [compound 691] when you can.
Response: 2.75^[a] (isomer A)

Request: Return the recorded logP value; entry: Cc1cccc(C(=NOCC(C)CON=C(c2ccccc2)c2cccc(C)n2)c2ccccc2)n1 (mixture of isomers) [Compound 659]
Response: 4.09^[a]

Request: Complete the entry with logP for CC(=NOCC(C)(C)CON=C(C)c1nc2ccccc2[nH]1)c1nc2ccccc2[nH]1 [Compound 573]
Response: 2.10^[a]

Request: Output measured logP for this item: CC(=NOCC1(CON=C(C)c2cccc(C)n2)CC(c2ccccc2)=NO1)c1cccc(C)n1 (stereo not drawn) [Compound 593]
Response: 3.74^[a]

Request: Specify logP for CCC(=NOCC(C)(C)CON=C(CC)c1cc(C)cc(C)n1)c1cc(C)cc(C)n1 (mixture of isomers) [Compound 571] and stop.
Response: 3.92^[a]

Request: Provide logP value for the following molecule: CCOc1cc(C)nc(C(C)=NOCC(C)CON=C(C)c2cc(OCC)cc(C)n2)c1 (stereo not drawn) [Compound 683]
Response: 1.71^[a]
